Test system: A549
Test: In vitro antiproliferative activity against A549 cell line (human lung tumor) at 1 uM concentration
Format: functional
Assign inhibition at 1 µM to each entry below.
Return type: number; implicit unit %.

Provide A549 inhibition at 1 µM reading for Cc1ccc(CO/N=C/c2c(C)nn(C)c2Oc2ccc(Cl)cc2)cc1 .
50

Recall the reported inhibition at 1 µM of Cc1nn(C)c(Oc2ccccc2)c1/C=N/OCCN1CCOCC1 on A549 and write it down.
-19.4

With A549 as the test system, provide measured inhibition at 1 µM for this molecule: Cc1nn(C)c(Oc2ccc(Cl)cc2)c1/C=N/OCc1ccc(C(F)(F)F)cc1
50.9

Lab note: record inhibition at 1 µM of Cc1nn(C)c(Oc2ccccc2)c1/C=N/OCCN1CCCC1 tested on A549.
-8.2

With A549 as the test system, provide measured inhibition at 1 µM for this molecule: Cc1nn(C)c(Oc2ccccc2)c1/C=N/OCc1cccc(-c2ccccc2)c1C
5

Write down the reported inhibition at 1 µM (system: A549) of Cc1ccc(CO/N=C/c2c(C)nn(C)c2Oc2ccccc2)cc1
29.1

Provide measured inhibition at 1 µM on A549 for Cc1nn(C)c(Oc2ccccc2)c1/C=N/OCc1ccc([N+](=O)[O-])cc1 please.
39.4

Under A549: report inhibition at 1 µM of Cc1c(CO/N=C/c2c(-c3ccccc3)nn(-c3ccccc3)c2Oc2ccc(Cl)cc2)cccc1-c1ccccc1 .
-10.1

Fetch value of inhibition at 1 µM on A549 for Cc1nn(C)c(Oc2ccccc2)c1/C=N/OCCN(C)C .
-5.9

# lookup: A549 inhibition at 1 µM, key = Cc1nn(C)c(Oc2ccccc2)c1/C=N/OCCN1CCCCC1
-9.9

Please look at CC(C)c1nn(-c2ccccc2)c(Oc2ccc(Cl)cc2)c1/C=N/OCc1ccc(C(=O)OC(C)(C)C)cc1 and tell me its recorded inhibition at 1 µM on A549.
-10

Jot down inhibition at 1 µM (A549) of Cc1nn(-c2ccccc2)c(Oc2ccc(Cl)cc2)c1/C=N/OCc1ccc(C(=O)OC(C)(C)C)cc1 .
-6.1

Answer briefly: inhibition at 1 µM recorded on A549 for Cc1nn(-c2ccccn2)c(Oc2ccccc2)c1/C=N/OCc1ccc(C(=O)OC(C)(C)C)cc1
-9.1

Give the observed inhibition at 1 µM of COc1ccc(CO/N=C/c2c(C)nn(C)c2Oc2ccc(Cl)cc2)cc1 for A549.
43.9

Given COC(=O)c1ccc(CO/N=C/c2c(C)nn(C)c2Oc2ccc(Cl)cc2)cc1 , report its inhibition at 1 µM on A549.
49.9

Report inhibition at 1 µM from A549 testing of Cc1nn(C)c(Oc2ccccc2)c1/C=N/OCc1ccc(C(F)(F)F)cc1
34.7

State inhibition at 1 µM on A549. Entry: CC(C)c1nn(-c2ccccc2)c(Oc2ccc(Cl)cc2)c1/C=N/OCc1ccc(C(F)(F)F)cc1
-12.1

With A549 as the test system, provide measured inhibition at 1 µM for this molecule: Cc1nn(C)c(Oc2ccccc2)c1/C=N/OCCN1CCN(Cc2ccccc2)CC1
28.4

Please indicate recorded inhibition at 1 µM of CCOC(=O)c1ccc(CO/N=C/c2c(C)nn(-c3ccccc3)c2Oc2ccc(Cl)cc2)cc1 measured with A549.
-9.9

Determine reported inhibition at 1 µM for Cc1nn(C)c(Oc2ccccc2)c1/C=N/OCCN1CCN(Cc2ccc(C(F)(F)F)cc2)CC1 ; test system: A549.
39.7

Give inhibition at 1 µM for Cc1nn(C)c(Oc2ccccc2)c1/C=N/OCCN1CCN(Cc2ccc(C(=O)OC(C)(C)C)cc2)CC1 tested on A549.
44.7

Report inhibition at 1 µM from A549 testing of COc1cccc(CO/N=C/c2c(C)nn(C)c2Oc2ccccc2)c1
1

Send back A549 inhibition at 1 µM of CCOC(=O)c1ccc(CO/N=C/c2c(C)nn(C)c2Oc2ccc(Cl)cc2)cc1 only.
48.2

Provide the reported inhibition at 1 µM (system: A549) for Cc1nn(C)c(Oc2ccc(Cl)cc2)c1/C=N/OCc1ccc([N+](=O)[O-])cc1
39.6

---

System: HepG2
Experiment: In vitro antiproliferative activity against HepG2 cell line (human liver tumor) at 1 uM concentration
Assay type: functional
quantity-measured: inhibition at 1 µM (%)
Quick reminder: number only, in %, skip the unit.

Report inhibition at 1 µM, nothing else, for this compound: Cc1nn(C)c(Oc2ccccc2)c1/C=N/OCc1ccc(C(F)(F)F)cc1
5.8

Quote inhibition at 1 µM reported for Cc1ccc(CO/N=C/c2c(C)nn(C)c2Oc2ccc(Cl)cc2)cc1 please.
31.3

Report measured inhibition at 1 µM; entry is Cc1nn(C)c(Oc2ccc(Cl)cc2)c1/C=N/OCc1ccc(C(F)(F)F)cc1
20.6

Please indicate inhibition at 1 µM recorded for Cc1nn(C)c(Oc2ccccc2)c1/C=N/OCCN1CCN(Cc2ccc(C(F)(F)F)cc2)CC1
14.4

Specify reported inhibition at 1 µM for the compound shown: Cc1c(CO/N=C/c2c(-c3ccccc3)nn(-c3ccccc3)c2Oc2ccc(Cl)cc2)cccc1-c1ccccc1
-14.8

---

Please provide measured IC50 for the entries that follow.
Tested on: XF498
Assay: Cytotoxic activity against XF498 cell line (human CNS solid tumor)
Format: functional, cell-based
Details: Homo sapiens, XF498; read-out: IC50
// units = µg/mL; emit number, no label

Supply reported IC50 belonging to this compound: Cc1nn(C)c(N(C)C)c1/C=N/OCc1ccc(C(=O)OC(C)(C)C)cc1
3.87

Quick one: give measured IC50 for Cc1nn(C)c(N2CCCC2)c1/C=N/OCc1ccc(C(=O)OC(C)(C)C)cc1
0.12

Dear colleague, please send me the reported IC50 for Cc1nn(C)c(Oc2ccccc2)c1/C=N/OCc1ccc(C(=O)OC(C)(C)C)cc1 [FENPYROXYMATE] when you can.
0.04

Specify measured IC50 for Cc1nn(C)c(Sc2ccccc2)c1/C=N/OCc1ccc(C(=O)OC(C)(C)C)cc1 .
0.28

Item Cc1nn(C)c(-n2cccc2)c1/C=N/OCc1ccc(C(=O)OC(C)(C)C)cc1 : provide IC50
2.67

Indicate its recorded IC50; the compound in question is Cc1nn(C)c(-n2cccn2)c1/C=N/OCc1ccc(C(=O)OC(C)(C)C)cc1
5.51

Report IC50, nothing else, for this compound: Cc1nn(C)c(-n2ccnc2)c1/C=N/OCc1ccc(C(=O)OC(C)(C)C)cc1
8.15

Give the reported value of IC50 for this record: Cc1nn(C)c(N2CCOCC2)c1/C=N/OCc1ccc(C(=O)OC(C)(C)C)cc1
1.04

Quote IC50 reported for COc1cccc2c1C(=O)c1c(O)c3c(c(O)c1C2=O)C[C@@](O)(C(=O)CO)C[C@@H]3O[C@H]1C[C@H](N)[C@H](O)[C@H](C)O1 please.
0.09

Given the compound Cc1nn(C)c(Oc2ccc(Cl)cc2)c1/C=N/OCc1ccc(C(=O)OC(C)(C)C)cc1 , write its reported IC50.
0.02

Determine its reported IC50: Cc1nn(C)c(-n2ccc3ccccc32)c1/C=N/OCc1ccc(C(=O)OC(C)(C)C)cc1
1.61

---

System: SK-OV-3
Assay: Cytotoxic activity against SKOV-3 cell line (human solid ovarian tumor cell line)
Assay type: functional, cell-based
Settings: Homo sapiens, SK-OV-3; read-out: IC50
Exercise: for every item that follows, state its recorded IC50.
Answer format: numeric, µg/mL implied, no suffix.

GET IC50 | system: SK-OV-3 | item: Cc1nn(C)c(Sc2ccccc2)c1/C=N/OCc1ccc(C(=O)OC(C)(C)C)cc1
0.92

Fill in IC50 for Cc1nn(C)c(-n2cccc2)c1/C=N/OCc1ccc(C(=O)OC(C)(C)C)cc1 tested with SK-OV-3.
3.91

Output reported IC50 of the compound Cc1nn(C)c(N2CCCC2)c1/C=N/OCc1ccc(C(=O)OC(C)(C)C)cc1 on SK-OV-3.
3.19

Give IC50 for Cc1nn(C)c(Oc2ccccc2)c1/C=N/OCc1ccc(C(=O)OC(C)(C)C)cc1 [FENPYROXYMATE] tested on SK-OV-3.
0.21

System SK-OV-3. Read-out IC50. Item Cc1nn(C)c(N(C)C)c1/C=N/OCc1ccc(C(=O)OC(C)(C)C)cc1 . Report value.
9.06

Jot down IC50 (SK-OV-3) of COc1cccc2c1C(=O)c1c(O)c3c(c(O)c1C2=O)C[C@@](O)(C(=O)CO)C[C@@H]3O[C@H]1C[C@H](N)[C@H](O)[C@H](C)O1 [DOXORUBICIN] .
0.09

Consider the compound Cc1nn(C)c(N2CCOCC2)c1/C=N/OCc1ccc(C(=O)OC(C)(C)C)cc1 tested on SK-OV-3; state its IC50.
8.87

Give SK-OV-3 IC50 for the following compound: Cc1nn(C)c(-n2ccc3ccccc32)c1/C=N/OCc1ccc(C(=O)OC(C)(C)C)cc1
2.07

Find IC50 for Cc1nn(C)c(-n2cccn2)c1/C=N/OCc1ccc(C(=O)OC(C)(C)C)cc1 on SK-OV-3 and write it down.
9.63

Give measured IC50 for Cc1nn(C)c(-n2ccnc2)c1/C=N/OCc1ccc(C(=O)OC(C)(C)C)cc1 (SK-OV-3).
14.1

Identify measured IC50 obtained with SK-OV-3 for Cc1nn(C)c(Oc2ccc(Cl)cc2)c1/C=N/OCc1ccc(C(=O)OC(C)(C)C)cc1 .
0.28

Source: ChEMBL document CHEMBL1140245
